# assayMethodText: Selectivity ratio of IC50 for human resting PBMC to IC50 for human CEM cells
# Format: ADME, cell-based, CCRF-CEM
# statedConditions: resting PBMC versus CEM cells, read-out: Ratio IC50
measuredMetric: selectivity ratio
Enter a number only.

{"compoundSmiles": "C=C(Br)C(=O)Nc1cccc(/C=C/C(=O)Nc2ccc(N3CCOCC3)cc2)c1", "recordedNumber": 10}

From here, focus on the item given below.
Please look up its selectivity ratio: C=C(Br)C(=O)Nc1ccc(/C=C/C(=O)Nc2cc(OC)c(OC)c(OC)c2)cc1 10

###

# System: HT-29
# assayMethodText: Cytotoxicity against human HT-29 cells assessed as growth inhibition after 72 hrs by MTT assay
# Format: functional, cell-based
# statedConditions: HT-29, 72 h
IC50 values by entry
Record the value in µM, omitting the unit from your answer.

Record excerpt, results attached:
{"compoundSmiles": "C=C(Br)C(=O)Nc1cccc(/C=C/C(=O)NCc2ccc(C)cc2)c1", "unitAnnotation": "µM", "recordedNumber": 2.7}
{"compoundSmiles": "C=C(Br)C(=O)Nc1cccc(/C=C/C(=O)Nc2ccc(C)cc2)c1", "unitAnnotation": "µM", "recordedNumber": 1.2}
{"compoundSmiles": "C=C(Br)C(=O)Nc1cccc(/C=C/C(=O)Nc2ccc(OCC)cc2)c1", "unitAnnotation": "µM", "recordedNumber": 3.4}
{"compoundSmiles": "C=C(Br)C(=O)Nc1cccc(/C=C/C(=O)Nc2ccc(OC)cc2)c1", "unitAnnotation": "µM", "recordedNumber": 2.3}
{"compoundSmiles": "C=C(Br)C(=O)Nc1cccc(/C=C/C(=O)Nc2cc(OC)cc(OC)c2)c1", "unitAnnotation": "µM", "recordedNumber": 3.6}

May I ask what IC50 has been recorded for C=C(Br)C(=O)Nc1cccc(/C=C/C(=O)Nc2ccc(F)c(F)c2)c1 ? 8.7

Fill in the blank: the reported IC50 of C=C(Br)C(=O)Nc1cccc(/C=C/C(=O)Nc2ccc(OC(F)(F)F)cc2)c1 is ____. 61.2

Request the reported IC50 associated with C=C(Br)C(=O)Nc1ccc(/C=C/C(=O)Nc2ccc(OC)cc2)cc1 3.1

Record request: IC50 value, item C=C(Br)C(=O)Nc1cccc(/C=C/C(=O)Nc2cc(OC)c(OC)c(OC)c2)c1 2.3

Name the reported IC50 value associated with the compound COc1cccc(/C=C/C(=O)Nc2cc(OC)c(OC)c(OC)c2)c1 44.1

Name the reported IC50 value associated with the compound COc1cc(NC(=O)/C=C/c2cccc(OCc3ccccc3)c2)cc(OC)c1OC 3.6

Quick check: IC50 of COc1cc(NC(=O)/C=C/c2cccc(N)c2)cc(OC)c1OC ? 63.1

###

# System: HeLa
# assayMethodText: Cytotoxicity against human HeLa cells assessed as growth inhibition after 72 hrs by MTT assay
# Assay type: functional, cell-based
Listed next: entries and their corresponding IC50.
I only need the number, in nM, no unit after it.

{"compoundSmiles": "C=C(Br)C(=O)Nc1cccc(/C=C/C(=O)Nc2ccc(Cl)cc2)c1", "studySystem": "HeLa", "IC50 [nM]": 2800}
{"compoundSmiles": "C=C(Br)C(=O)Nc1cccc(/C=C/C(=O)Nc2ccc(OC)c(OC)c2)c1", "studySystem": "HeLa", "IC50 [nM]": 560}
{"compoundSmiles": "COc1cc(NC(=O)/C=C/c2cccc(N)c2)cc(OC)c1OC", "studySystem": "HeLa", "IC50 [nM]": 53100}
{"compoundSmiles": "C=C(Br)C(=O)Nc1cccc(/C=C/C(=O)Nc2ccccc2)c1", "studySystem": "HeLa", "IC50 [nM]": 7300}
{"compoundSmiles": "C=C(Br)C(=O)Nc1cccc(/C=C/C(=O)Nc2ccc(F)cc2)c1", "studySystem": "HeLa", "IC50 [nM]": 16800}
{"compoundSmiles": "C=C(Br)C(=O)Nc1cccc(/C=C/C(=O)Nc2cccc3ccccc23)c1", "studySystem": "HeLa", "IC50 [nM]": 1400}
{"compoundSmiles": "C=C(Br)C(=O)Nc1cccc(/C=C/C(=O)Nc2cc(OC)c(OC)c(OC)c2)c1", "studySystem": "HeLa", "IC50 [nM]": 880}
{"compoundSmiles": "C=C(Br)C(=O)Nc1cccc(/C=C/C(=O)Nc2ccc(N3CCOCC3)cc2)c1", "studySystem": "HeLa", "IC50 [nM]": 430}
{"compoundSmiles": "C=C(Br)C(=O)Nc1ccc(/C=C/C(=O)Nc2cc(OC)c(OC)c(OC)c2)cc1", "studySystem": "HeLa", "IC50 [nM]": 490}

Moving on to another compound below.
What IC50 value was documented for this compound, C=C(Br)C(=O)Nc1cccc(/C=C/C(=O)Nc2ccc(OC)cc2)c1 ? 790
